Assay: NCI Yeast Anticancer Drug Screen. Data for the sgs1 mgt1 strain (AID 161);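 note: 0% = growth of cultures given vehicle only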
Details: S. cerevisiae sgs1 mgt1 strain, at 5.0 µM (retest, dose inferred, filed as 0.5), hits give high values
The panel holds about 79,000 compounds, 15% with a hit somewhere; the sample as a whole holds those more often. Activity calls are given as the source filed them. Cut-off read from the data, not from the text of the source: active = growth inhibition above about 70%; inactive = the rest.
OUTCOME_MEASURE: growth inhibition

INSERT INTO results (compound, result) VALUES
  ('CC(CN(C)C)C(/C=C/c1ccc(Cl)cc1)=N\NC(=O)c1ccccc1 (stereo not given)', '1% (inactive)'),
  ('COc1ccc(OCC(O)CN2CCN(c3cccc(Cl)c3)CC2)cc1 (stereo not given)', '1% (inactive)'),
  ('COC(=O)c1nc(=S)[nH]c(C(=O)OC)c1C(=O)C(C)(C)C', '11% (inactive)'),
  ('COc1cc(C2C=C(c3ccccc3)Oc3cc4c(cc32)OCO4)cc(OC)c1OC (stereo not given)', '-13% (inactive)'),
  ('CC1CCCCC12C(C#N)(C#N)C2(C#N)C#N (stereo not given)', '33% (inactive)'),
  ('COc1ccc(/C=C2/C(=O)NC3SC=C(c4cccc([N+](=O)[O-])c4)N23)cc1 (stereo not given)', '-4% (inactive)'),
  ('CCCCCCCCCCC[N+]1(Cc2ccccc2)CC2CCN(Cc3ccccc3)CC2C1 (stereo not given)', '54% (inactive)'),
  ('Cc1ccc(C(=O)C(CN(C)C)CN(C)C)cc1C', '9% (inactive)'),
  ('Cc1[nH]n(C(N)=S)c(=O)c1N=Nc1ccc([N+](=O)[O-])cc1', '-4% (inactive)'),
  ('COc1ccccc1NC(=S)N/N=C(/C)c1ccccn1', '34% (inactive)');
